# target_entity: Delta-type opioid receptor (Homo sapiens)
# Sequence (P41143 whole entry): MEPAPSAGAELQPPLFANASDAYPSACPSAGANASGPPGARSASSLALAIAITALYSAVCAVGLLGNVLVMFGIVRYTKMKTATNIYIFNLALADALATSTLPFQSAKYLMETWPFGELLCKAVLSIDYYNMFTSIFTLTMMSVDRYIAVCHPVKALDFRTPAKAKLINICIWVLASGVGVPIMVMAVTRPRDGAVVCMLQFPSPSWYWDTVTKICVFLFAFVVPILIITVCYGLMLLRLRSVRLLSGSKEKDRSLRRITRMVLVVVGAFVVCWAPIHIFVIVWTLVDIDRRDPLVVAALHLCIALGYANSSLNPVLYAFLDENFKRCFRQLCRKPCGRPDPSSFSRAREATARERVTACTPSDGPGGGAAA
# method: Agonistic activity against human opioid Delta receptor transfected into Chinese hamster ovary (CHO) cells using [3H]Cl-DPDPE as radioligand
Catalogue of pEC50 readings, one per entry.
Keep it numeric: pEC50 is minus log10 of the concentration in mol/L.

>>> df
                                   molecule   val
0  Cc1ncc2c(n1)C1Oc3c(O)ccc4c3C13CCN(C)C(C4)C3(O)C2 (stereo not given)  7.02
1  CN1CCC23c4c5ccc(O)c4OC2c2nc(-c4ccccc4)ncc2CC3(O)C1C5 (stereo not given)  7.62
2  CN1CCC23c4c5ccc(O)c4OC2c2[nH]c(=O)ncc2CC3(O)C1C5 (stereo not given)  7.21
3  CN1CCC23c4c5ccc(O)c4OC2c2nc(N)ncc2CC3(O)C1C5 (stereo not given)  7.18

Reported pEC50 for CN1CCC23c4c5ccc(O)c4OC2c2n[nH]cc2CC3(O)C1C5 (stereo not given) was 7.60

* * *

Record set of pKi for target or system Mu-type opioid receptor (Homo sapiens, UniProt P35372).
In plain terms, pKi is the concentration in mol/L turned into minus its base-10 logarithm.

For orientation, consider the following solved cases.
In [3]: df
Out[3]:
                                   compound  recorded_metric   val
0  CN1CCC23c4c5ccc(O)c4OC2c2nc(-c4ccccc4)ncc2CC3(O)C1C5 (stereo not given)              pKi  8.13
1  CN1CCC23c4c5ccc(O)c4OC2c2nc(N)ncc2CC3(O)C1C5 (stereo not given)              pKi  8.14

Short answer on Mu-type opioid receptor (Homo sapiens, UniProt P35372) for CN1CCC23c4c5ccc(O)c4OC2c2[nH]c(=O)ncc2CC3(O)C1C5 (stereo not given) , pKi: 8.43

Here CN1CCC23c4c5ccc(O)c4OC2c2n[nH]cc2CC3(O)C1C5 (stereo not given) was tested on Mu-type opioid receptor (Homo sapiens, UniProt P35372), and its pKi came to 8.76

Param item: Cc1ncc2c(n1)C1Oc3c(O)ccc4c3C13CCN(C)C(C4)C3(O)C2 (stereo not given) ; param system: Mu-type opioid receptor (Homo sapiens, UniProt P35372); output pKi: 8.28

* * *

# target_entity: Kappa-type opioid receptor (Homo sapiens, UniProt P41145)
# Sequence (P41145 whole entry): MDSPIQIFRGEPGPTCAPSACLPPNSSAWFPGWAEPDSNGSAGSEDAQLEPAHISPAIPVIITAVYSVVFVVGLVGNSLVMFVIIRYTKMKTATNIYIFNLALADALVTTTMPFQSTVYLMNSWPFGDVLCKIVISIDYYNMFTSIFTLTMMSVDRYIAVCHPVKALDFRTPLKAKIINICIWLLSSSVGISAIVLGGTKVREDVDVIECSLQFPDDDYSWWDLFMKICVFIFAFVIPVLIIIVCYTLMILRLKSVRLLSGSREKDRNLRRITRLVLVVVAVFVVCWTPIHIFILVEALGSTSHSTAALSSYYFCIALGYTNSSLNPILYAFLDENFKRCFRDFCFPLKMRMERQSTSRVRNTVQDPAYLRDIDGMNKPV
# method: Binding affinity towards human opioid Kappa receptor transfected into Chinese hamster ovary (CHO) cells using [3H]U-69593 as radioligand.
# Type: cell-based
recorded_metric: Ki
Note to self: number, then unit, no commentary.

Previously resolved entries follow.
                                   compound      val
0  CN1CCC23c4c5ccc(O)c4OC2c2nc(-c4ccccc4)ncc2CC3(O)C1C5 (stereo not given)    45 nM
1  CN1CCC23c4c5ccc(O)c4OC2c2[nH]c(=O)ncc2CC3(O)C1C5 (stereo not given)  12.3 nM
2  Cc1ncc2c(n1)C1Oc3c(O)ccc4c3C13CCN(C)C(C4)C3(O)C2 (stereo not given)  68.5 nM
3  CN1CCC23c4c5ccc(O)c4OC2c2nc(N)ncc2CC3(O)C1C5 (stereo not given)  21.1 nM

Noted for CN1CCC23c4c5ccc(O)c4OC2c2n[nH]cc2CC3(O)C1C5 (stereo not given) : its Ki reads 11.9 nM
